Biological target: T1, CD27 expressed on the cell surface (HT1080_CD27 cells) (human, UniProt P26842 20-260); further: test concentration or dose not given here
T1 sequence (looked up): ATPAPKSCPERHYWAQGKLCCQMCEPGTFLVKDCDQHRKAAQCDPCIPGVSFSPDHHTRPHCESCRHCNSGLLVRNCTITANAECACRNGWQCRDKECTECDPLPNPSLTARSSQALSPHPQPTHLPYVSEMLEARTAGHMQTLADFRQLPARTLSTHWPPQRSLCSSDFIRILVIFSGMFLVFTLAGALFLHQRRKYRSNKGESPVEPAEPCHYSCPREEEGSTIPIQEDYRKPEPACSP
Experiment: cell-based or functional assay
Assignment: determine reported IL-8, cross-linked by F(ab')2 fragment [abs. corr.] for the given binders.
Please answer using a numeric value trailed by its unit.

Query: Need IL-8, cross-linked by F(ab')2 fragment [abs. corr.], item P018.S.01.A.B04 (antibody, V domains shown, V regions on human Ig constant parts; also called AB27_5) VH: QEQLEESGGRLVTPGGTLTLTCTASGFSLSSYDMSWVRQAPGKGLEWIGYIWSDGNTDYASWAAGRFTASRASTTVDLKMTSLTTEDTATYFCARGYTGFFLWGPGTLVTVSS VL: DVVMTQTPSSVSAAVGGTVTIKCQASQSIGSSYLSWYQQKPGQPPKLLIYKTSTLASGVPSRFKGSGSGTEFTLTISDLESDDAATYYCQCTYYGGSWRVAFGGGTEVVVK
Result: 2.12 abs. corr.

Query: Need IL-8, cross-linked by F(ab')2 fragment [abs. corr.], item P018.S.06.A.F06 (antibody, V domains shown, V regions on human Ig constant parts; also called AB27_110) VH: QSVEESGGRLVTPGTPLTLTCAASGFSLNSYVMSWVRQAPGKGLEWIGYIDYGGAPYYASWAKGRFTISKTSTTVELKITSPTIEDTGTYFCARGGYGGYVLVTALWGPGTLVTVSS VL: DIVMTQTPASVSEPVGGTVTIKCQASENIYSYLAWYQQKPGQPPKLLIYQASTLASGVSSRFKGSGSGTQFTLTISDLESADAATYYCQTYYGGSTYGNGFGGGTEVVVE
Result: 1.03 abs. corr.

Query: Need IL-8, cross-linked by F(ab')2 fragment [abs. corr.], item P018.S.03.A.D03 (antibody, V domains shown, V regions on human Ig constant parts; also called AB27_48) VH: QEQLVESGGGLVQPEGSLTLTCTASGFSFNNNYVMSWVRQAPGKGLEWIGTIYVVSGSTYYASWVNGRFSISKTSSTTVTLQMTSLTDADTATYFCARDQLYNSGYDFDLWGPGTLVIVSS VL: AQVLTQTASPVSAAVGSTVTISCQSSQSVYNNNELSWYQQKPGQPPKLLIYQASKLASGVSSRFSGSESGTQFTLTISGVQSDDAATYYCQGTYYRSGLDNGFGGGTEVVVK
Result: 1.05 abs. corr.

Query: Need IL-8, cross-linked by F(ab')2 fragment [abs. corr.], item P018.S.06.A.E02 (antibody, V domains shown, V regions on human Ig constant parts; also called AB27_105) VH: QSLEESGGRLVTPGTPLTLTCTVSGIDLNNNAMTWVRQAPGEGLEWIGIISTADTTSYASWTKGRFTISKTSTTVDLKITSPTTEDTATYFCARAAYFSYGYFNLWGQGTLVTVSS VL: DIVMTQTPASVEAAVGGTVTIKCQASQNIGNALAWYQQKSGQPPKLLIYGASTLASGVPSRFKGSGSGTEFTLTISDLESADATTYFCQSYVYSDGNVFGGGTEVVVK
Result: 1.22 abs. corr.

Query: Need IL-8, cross-linked by F(ab')2 fragment [abs. corr.], item P018.S.09.A.D04 (antibody, V domains shown, V regions on human Ig constant parts; also called AB27_151) VH: QSVEESGGRLVTPGTPLTLTCTVSGFSLSSNAISWVRQAPGKGLEWIAIITHSDNTFYASWAKGRFTISKASTTVDLKVTSPTTEDTATYFCARDGYVSSSGTYMGGYFDLWGQGTLVTVSS VL: DPVLTQTPSPVSAAVGGTVTINCQASQIIYNDKNLAWYQQKPGQPPKLLIYYASTLASGVSSRFKGSASGTQFTFTISGVQSDDAATYYCQGEFSCSSADCIAFGGGTEVVVK
Result: 1.66 abs. corr.

Query: Need IL-8, cross-linked by F(ab')2 fragment [abs. corr.], item P018.S.04.A.E02 (antibody, V domains shown, V regions on human Ig constant parts; also called AB27_74) VH: QSVEESGGRLVTPGTPLTLTCTVSGFSLNNYDMNWVRQAPGKGLEWVGYIDTGGSAYYASWVNGRFTISKTSTTVELKMTSLTASDTATYFCARGYTHGYLWGQGTLVTVSS VL: ALVMTQTPSSVSAAVGGTVTINCQASQNVYNNLAWYQQKPGQPPKLLIDSASTLASGVSSRFKGSGSGTEFTLTISDLESADAATYYCQSADWESSNFFWAFGGGTEVVVK
Result: 1.91 abs. corr.

Query: Need IL-8, cross-linked by F(ab')2 fragment [abs. corr.], item P018.S.01.A.A05 (antibody, V domains shown, V regions on human Ig constant parts; also called AB27_2) VH: QEQLEESGGDRVQPEGSLTLTCTASGFSFSATYWICWVRQAPGKGLEWIACIFGRSSSDTYYASWAKGRFTISKTSSTTVTLQMTSLTAADTATYFCARGDSGHPYYYSFNLWGPGTLVTVSS VL: AYDMTQTPASVEVAVGGTVTIKCQASQSIGGYLAWYQQKPGQPPKLLIYGASTLASGVPSRFRGSGSGTEFTLTISDLDSADAATYYCQCTHGTRSDWAFGGGTEVVVK
Result: 1.09 abs. corr.

Query: Need IL-8, cross-linked by F(ab')2 fragment [abs. corr.], item P018.S.03.A.C02 (antibody, V domains shown, V regions on human Ig constant parts; also called AB27_44) VH: QSVEESGGRLVTPGTPLTLTCTVSRFSLSTSTMTWVRQAPGKGLEWIGIINGGGSAYYANWAKGRFTISKTSTTVDLKITSPTTEDTATYFCARSYDSYDDIYGTSRLYAFDPWGPGTLVTVSS VL: AYDMTQTPASVEVVVGGTVTISCQASESIYANLAWYQQKPGQPPKLLIYRASYLASGVSSRFKGSGSGTQFTLTISGVESADAATYYCQQGYSSSNVDNSFGGGTEVVVK
Result: 1.58 abs. corr.

Query: Need IL-8, cross-linked by F(ab')2 fragment [abs. corr.], item P018.S.03.A.H04 (antibody, V domains shown, V regions on human Ig constant parts; also called AB27_62) VH: QSLEESGGRLVTPGTPLTLTCTASGFSLSNYSMNWVRQAPGKGLEWIGIINTYGSAYYASWAKGRFTISKTSTTVDLKMTSLTTEDTATYFCARDAGGSTVPWFFDVWGPGTLVTVSS VL: AYDMTQTPASVEVAVGGTVTIKCQASQTISNYLAWYQQKPGQRPKLLIYDASKLASGVPSRFDGSGSGTEYTLTISGVGSADAATYYCQQGYADSNVDNVFGGGTEVVVK
Result: 1.23 abs. corr.

Query: Need IL-8, cross-linked by F(ab')2 fragment [abs. corr.], item P018.S.06.A.B03 (antibody, V domains shown, V regions on human Ig constant parts; also called AB27_99) VH: QSVEESGGRLVTPGTPLTLTCTVSGFSLSSYDMIWVRQAPGKGLEWIGIIYLTDTTYYANWAKGRFTISKTSTTVDLKISSPTTEDTATYFCARHLDTSSGGFYFNLWGQGTLVTVSS VL: AQVLTQTPSSVSAAVGGTVTINCQASQSVYNSKILAWYQQKPGRPPKLLIYDASTLASGVPSRFKGSGSGTQFTLTISGVQSDDAATYFCQGEFTCTSADCIAFGGGTEVVVK
Result: 1.22 abs. corr.
